Experiment: Plasma methadone concentrations by liquid chromatography/triple quadrupole mass spectrometry (Example I)
Conditions: dog, in vivo, 1 mg/kg, Plasma methadone concentration, individual dogs, methadone alone 1 mg/kg PO; 4 hr; Dog 1-6
REPORTED ENDPOINT: concentration at 4 h

// lookup concentration at 4 h for CCC(=O)C(CC(C)N(C)C)(c1ccccc1)c1ccccc1 (racemic)
< 0.5 ng/mL

----------
Assay: Plasma methadone concentrations by liquid chromatography/triple quadrupole mass spectrometry (Example I)
Settings: dog, in vivo, Mean plasma methadone concentration, methadone 1 mg/kg PO 24 h after starting fluconazole 5 mg/kg PO q 12 h; 0 hr
REPORTED ENDPOINT: concentration at 0 h
# answer = value followed by unit

Item under review: CCC(=O)C(CC(C)N(C)C)(c1ccccc1)c1ccccc1 (racemic) . Reported concentration at 0 h?
0 ng/mL

----------
Test: Plasma methadone concentrations by liquid chromatography/triple quadrupole mass spectrometry (Example I)
Details: dog, in vivo, Mean plasma methadone concentration, methadone 1 mg/kg PO 24 h after starting fluconazole 5 mg/kg PO q 24 h; 2 hr
REPORTED ENDPOINT: concentration at 2 h (µg/mL)
Give the value in µg/mL but do not write µg/mL after it.

Need concentration at 2 h of CCC(=O)C(CC(C)N(C)C)(c1ccccc1)c1ccccc1 (racemic) [methadone] , thanks.
0.0399

----------
Experiment: Plasma methadone concentrations by liquid chromatography/triple quadrupole mass spectrometry (Example I)
Conditions: dog, in vivo, 1 mg/kg, Plasma methadone concentration, individual dogs, methadone alone 1 mg/kg PO; 0 hr; Dog 1-6
REPORTED ENDPOINT: concentration at 0 h

Please look up its concentration at 0 h: CCC(=O)C(CC(C)N(C)C)(c1ccccc1)c1ccccc1 (racemic) [methadone]
< 0.5 ng/mL

----------
Assay: Plasma methadone concentrations by liquid chromatography/triple quadrupole mass spectrometry (Example I)
Conditions: dog, in vivo, Mean plasma methadone concentration, methadone 1 mg/kg PO 24 h after starting fluconazole 5 mg/kg PO q 24 h; 0.333 hr
REPORTED ENDPOINT: concentration at 0.333 h (ng/mL)
// units = ng/mL; emit number, no label

Field request: concentration at 0.333 h | item: CCC(=O)C(CC(C)N(C)C)(c1ccccc1)c1ccccc1 (racemic)
5.8

----------
Experiment: Plasma methadone concentrations by liquid chromatography/triple quadrupole mass spectrometry (Example I)
Details: dog, in vivo, Mean plasma methadone concentration, methadone 1 mg/kg PO 24 h after starting fluconazole 5 mg/kg PO q 24 h; 1 hr
REPORTED ENDPOINT: concentration at 1 h (ng/mL)
Answer in ng/mL, number only, no unit symbol.

Any idea what its concentration at 1 h is? The molecule is CCC(=O)C(CC(C)N(C)C)(c1ccccc1)c1ccccc1 (racemic)
33.7

----------
Assay: Plasma methadone concentrations by liquid chromatography/triple quadrupole mass spectrometry (Example I)
Details: dog, in vivo, Mean plasma methadone concentration, methadone 1 mg/kg PO 24 h after starting fluconazole 5 mg/kg PO q 12 h; 2 hr
REPORTED ENDPOINT: concentration at 2 h (ng/mL)
Note: unit ng/mL is implicit; provide only the numeric part.

State the recorded concentration at 2 h for this entry: CCC(=O)C(CC(C)N(C)C)(c1ccccc1)c1ccccc1 (racemic)
43.6

----------
Test: Plasma methadone concentrations by liquid chromatography/triple quadrupole mass spectrometry (Example I)
Conditions: dog, in vivo, 1 mg/kg, Mean plasma methadone concentration, methadone alone 1 mg/kg PO; 4 hr; 6 dogs
REPORTED ENDPOINT: concentration at 4 h

Suppose we examine the compound CCC(=O)C(CC(C)N(C)C)(c1ccccc1)c1ccccc1 (racemic) [methadone] ; what concentration at 4 h value has been reported?
0.4 ng/mL

----------
Assay: Plasma methadone concentrations by liquid chromatography/triple quadrupole mass spectrometry (Example I)
Conditions: dog, in vivo, Mean plasma methadone concentration, methadone 1 mg/kg PO 24 h after starting fluconazole 2.5 mg/kg PO q 12 h; 6 hr
REPORTED ENDPOINT: concentration at 6 h (ng/mL)
Just the number in ng/mL, nothing appended.

What value of concentration at 6 h has been recorded for this entry: CCC(=O)C(CC(C)N(C)C)(c1ccccc1)c1ccccc1 (racemic)
19.2

----------
Experiment: Plasma methadone concentrations by liquid chromatography/triple quadrupole mass spectrometry (Example I)
Conditions: dog, in vivo, Mean plasma methadone concentration, methadone 1 mg/kg PO 24 h after starting fluconazole 5 mg/kg PO q 12 h; 0.333 hr
REPORTED ENDPOINT: concentration at 0.333 h (ng/mL)
Number only, in ng/mL; omit the unit.

# get_value(readout='concentration at 0.333 h', item= CCC(=O)C(CC(C)N(C)C)(c1ccccc1)c1ccccc1 (racemic) [methadone] )
14

----------
Test: Plasma methadone concentrations by liquid chromatography/triple quadrupole mass spectrometry (Example I)
Settings: dog, in vivo, Mean plasma methadone concentration, methadone 1 mg/kg PO 24 h after starting fluconazole 2.5 mg/kg PO q 12 h; 1 hr
REPORTED ENDPOINT: concentration at 1 h (ng/mL)
Kindly answer with a numeric value in ng/mL, unit omitted.

Which measured concentration at 1 h value corresponds to CCC(=O)C(CC(C)N(C)C)(c1ccccc1)c1ccccc1 (racemic) ?
16

----------
Test: Plasma methadone concentrations by liquid chromatography/triple quadrupole mass spectrometry (Example I)
Settings: dog, in vivo, 1 mg/kg, Mean plasma methadone concentration, methadone alone 1 mg/kg PO; 0.333 hr; 6 dogs
REPORTED ENDPOINT: concentration at 0.333 h
Put down the number, then write its unit next to it.

Which concentration at 0.333 h reading was recorded for the compound CCC(=O)C(CC(C)N(C)C)(c1ccccc1)c1ccccc1 (racemic) ?
0.8 ng/mL

----------
Experiment: Plasma methadone concentrations by liquid chromatography/triple quadrupole mass spectrometry (Example I)
Conditions: dog, in vivo, Mean plasma methadone concentration, methadone 1 mg/kg PO 24 h after starting fluconazole 5 mg/kg PO q 24 h; 8 hr
REPORTED ENDPOINT: concentration at 8 h (ng/mL)
All answers are understood in ng/mL, so give the number only.

Would you kindly share the measured concentration at 8 h for CCC(=O)C(CC(C)N(C)C)(c1ccccc1)c1ccccc1 (racemic) ?
18.4

----------
Assay: Plasma methadone concentrations by liquid chromatography/triple quadrupole mass spectrometry (Example I)
Conditions: dog, in vivo, Mean plasma methadone concentration, methadone 1 mg/kg PO 24 h after starting fluconazole 5 mg/kg PO q 24 h; 0 hr
REPORTED ENDPOINT: concentration at 0 h (ng/mL)
Lab book: enter the figure in ng/mL, no units written.

For CCC(=O)C(CC(C)N(C)C)(c1ccccc1)c1ccccc1 (racemic) [methadone] , what is its reported concentration at 0 h?
0

----------
Assay: Plasma methadone concentrations by liquid chromatography/triple quadrupole mass spectrometry (Example I)
Details: dog, in vivo, Mean plasma methadone concentration, methadone 1 mg/kg PO 24 h after starting fluconazole 2.5 mg/kg PO q 12 h; 2 hr
REPORTED ENDPOINT: concentration at 2 h

Find the recorded concentration at 2 h belonging to CCC(=O)C(CC(C)N(C)C)(c1ccccc1)c1ccccc1 (racemic) [methadone] and report it.
28.4 ng/mL

----------
Assay: Plasma methadone concentrations by liquid chromatography/triple quadrupole mass spectrometry (Example I)
Conditions: dog, in vivo, Mean plasma methadone concentration, methadone 1 mg/kg PO 24 h after starting fluconazole 2.5 mg/kg PO q 12 h; 4 hr
REPORTED ENDPOINT: concentration at 4 h (ng/mL)
Please reply with the bare figure in ng/mL and do not write the unit itself.

I'd like to know its concentration at 4 h. The compound in question is CCC(=O)C(CC(C)N(C)C)(c1ccccc1)c1ccccc1 (racemic)
23.3

----------
Assay: Plasma methadone concentrations by liquid chromatography/triple quadrupole mass spectrometry (Example I)
Details: dog, in vivo, 1 mg/kg, Mean plasma methadone concentration, methadone alone 1 mg/kg PO; 1 hr; 6 dogs
REPORTED ENDPOINT: concentration at 1 h (ng/mL)
Write the number in ng/mL without appending the unit.

Which concentration at 1 h value belongs to CCC(=O)C(CC(C)N(C)C)(c1ccccc1)c1ccccc1 (racemic) ?
1.2

----------
Assay: in vivo
Details: mixed breed, dog, in vivo, sc
REPORTED ENDPOINT: concentration at 32 h (ng/mL)
Answer in ng/mL, number only, no unit symbol.

I have this compound here, CCC(=O)C(CC(C)N(C)C)(c1ccccc1)c1ccccc1 (racemic) , and I need its recorded concentration at 32 h.
4

----------
Test: Plasma methadone concentrations by liquid chromatography/triple quadrupole mass spectrometry (Example I)
Details: dog, in vivo, Mean plasma methadone concentration, methadone 1 mg/kg PO 24 h after starting fluconazole 5 mg/kg PO q 12 h; 0.667 hr
REPORTED ENDPOINT: concentration at 0.667 h (ng/mL)
Entry rule: numbers only, all in ng/mL.

# concentration at 0.667 h lookup, item CCC(=O)C(CC(C)N(C)C)(c1ccccc1)c1ccccc1 (racemic)
10.3
